Entries and their melting point values follow.

For orientation, consider the following solved cases.
CCCCc1c(C(=O)O)sc2ccc([N+](=O)[O-])cc12 | 238 to 240 °C
Nc1nc2c(ncn2OCC(O)CO)c(=O)[nH]1 (stereo not given) | 252 to 253 °C
COC(=O)Cc1ccc(N[C@@H](CCC(N)=O)C(=O)O)cc1 | 183 to 184 °C
CC(=O)OCCN(C)Cc1cc(C(=O)c2cccs2)cc(C(C)(C)C)c1O | 124 to 126 °C

In: Entry under review: `CCCCCCCCCCOc1ccc(-c2ccccc2)cc1` . Reported melting point?
Out: 70 to 73 °C
